Measured logD accompanies every entry in the list below.
# experimentSummary: Lipophilicity, logD of compound at pH 7.4
# Type: physicochemical
# runParameters: buffer

[
  {
    "entrySmiles": "Cn1cnnc1[C@]1(c2cccc(-c3nc(C(F)(F)F)c[nH]c3=O)c2)C[C@H](C)C1",
    "logD": 2.1
  },
  {
    "entrySmiles": "Cn1cc(Cn2cc(C(F)(F)F)cc(-c3cccc([C@]4(c5nncn5C)C[C@@H](C)C4)c3)c2=O)cn1",
    "logD": 2.7
  },
  {
    "entrySmiles": "COc1c[nH]c(=O)c(-c2cccc([C@]3(c4nncn4C)C[C@@H](C)C3)c2)c1",
    "logD": 1.5
  },
  {
    "entrySmiles": "CN1CC[C@H](Cn2cc(C(F)(F)F)cc(-c3cccc([C@]4(c5nncn5C)C[C@@H](C)C4)c3)c2=O)C1",
    "logD": 1.1
  },
  {
    "entrySmiles": "Cn1cnnc1C[C@]1(c2cccc(-c3cc(C(F)(F)F)c[nH]c3=O)c2)C[C@H](C#N)C1",
    "logD": 1.1
  },
  {
    "entrySmiles": "Cn1cnnc1[C@]1(c2cccc(-c3cc(C4CC4)c[nH]c3=O)c2)C[C@H](C)C1",
    "logD": 2.4
  },
  {
    "entrySmiles": "CC#C[C@H](C)n1cc(C(F)(F)F)cc(-c2cccc([C@]3(c4nncn4C)C[C@@H](C)C3)c2)c1=O",
    "logD": 3.9
  },
  {
    "entrySmiles": "Cc1nnc(Cn2cc(C(F)(F)F)cc(-c3cccc([C@]4(c5nncn5C)C[C@@H](C)C4)c3)c2=O)o1",
    "logD": 1.7
  },
  {
    "entrySmiles": "C[C@@H](c1cnn(C)c1)n1cc(C(F)(F)F)cc(-c2cccc([C@]3(c4nncn4C)C[C@@H](C)C3)c2)c1=O",
    "logD": 2.8
  },
  {
    "entrySmiles": "C[C@@H](C#N)n1cc(C(F)(F)F)cc(-c2cccc([C@]3(c4nncn4C)C[C@@H](C)C3)c2)c1=O",
    "logD": 2.2
  },
  {
    "entrySmiles": "Cn1cnnc1[C@]1(c2cccc(-c3cc(OC(F)(F)F)c[nH]c3=O)c2)C[C@H](C)C1",
    "logD": 2.6
  },
  {
    "entrySmiles": "CN1CCC(Cn2cc(C(F)(F)F)cc(-c3cccc([C@]4(c5nncn5C)C[C@@H](C)C4)c3)c2=O)CC1",
    "logD": 1.3
  },
  {
    "entrySmiles": "CC#CCn1cc(C(F)(F)F)cc(-c2cccc([C@]3(c4nncn4C)C[C@@H](C)C3)c2)c1=O",
    "logD": 3.3
  },
  {
    "entrySmiles": "Cn1cc(Cn2cc(C(F)(F)F)cc(-c3cccc([C@]4(c5nncn5C)C[C@@H](C)C4)c3)c2=O)nn1",
    "logD": 2.3
  },
  {
    "entrySmiles": "C[C@H](c1cnn(C)c1)n1cc(C(F)(F)F)cc(-c2cccc([C@]3(c4nncn4C)C[C@@H](C)C3)c2)c1=O",
    "logD": 2.9
  },
  {
    "entrySmiles": "Cn1cnnc1[C@]1(c2cccc(-c3cc(C(F)(F)F)ccc3O)c2)C[C@H](C)C1",
    "logD": 4.4
  },
  {
    "entrySmiles": "Cn1cnnc1[C@]1(c2cccc(-n3cc(C(F)(F)F)ccc3=O)c2)C[C@H](C)C1",
    "logD": 1.6
  }
]
